Reference source: ChEMBL document CHEMBL3352255

Test system: U2OS
Assay: Cytotoxicity against human U2OS cells after 72 hrs by WST-1 assay
Type: functional, cell-based
pIC50: −log10 of the molar value.
result_type: pIC50

>>> reported("C/C=C(/C)C(=O)O[C@@H]1C[C@H]2C(=C1C)[C@@H]1OC(=O)[C@@](C)(O)[C@@]1(O)[C@@H](OC(=O)[C@@H](C)CC)C[C@]2(C)OC(C)=O")
6.15
>>> reported("C/C=C(/C)C(=O)O[C@@H]1C[C@H]2C(=C1C)[C@@H]1OC(=O)[C@@](C)(O)[C@@]1(O)[C@@H](OC(=O)CCCCn1cc(COc3ccc(C4=C5C=CC=[N+]5[B-](F)(F)n5cccc54)cc3)nn1)C[C@]2(C)OC(C)=O")
5.04
>>> reported("C/C=C(/C)C(=O)O[C@@H]1C[C@H]2C(=C1C)[C@@H]1OC(=O)[C@@](C)(O)[C@@]1(O)[C@@H](OC(=O)CCOCCOCCOCCOCCn1cc(COc3ccc(C4=C5C=CC=[N+]5[B-](F)(F)n5cccc54)cc3)nn1)C[C@]2(C)OC(C)=O")
5.04

----------
Tested on: U2OS
Test: Cytotoxicity against human U2OS cells after 24 hrs by WST-1 assay
Assay type: functional, cell-based
pIC50: −log10 of the molar value.
result_type: pIC50

>>> reported("C/C=C(/C)C(=O)O[C@@H]1C[C@H]2C(=C1C)[C@@H]1OC(=O)[C@@](C)(O)[C@@]1(O)[C@@H](OC(=O)CCOCCOCCOCCOCCn1cc(COc3ccc(C4=C5C=CC=[N+]5[B-](F)(F)n5cccc54)cc3)nn1)C[C@]2(C)OC(C)=O")
"< 4.30"
>>> reported("F[B-]1(F)n2cccc2C=C2C=CC=[N+]21")
"< 4.30"
>>> reported("C/C=C(/C)C(=O)O[C@@H]1C[C@H]2C(=C1C)[C@@H]1OC(=O)[C@@](C)(O)[C@@]1(O)[C@@H](OC(=O)CCOCCOCCOCCOCCn1cc(COCCOCCOCCOCCNC(=O)CCOCCOCCOCCOCCn3cc(COc4ccc(C5=C6C=CC=[N+]6[B-](F)(F)n6cccc65)cc4)nn3)nn1)C[C@]2(C)OC(C)=O")
"< 4.30"
>>> reported("C/C=C(/C)C(=O)O[C@@H]1C[C@H]2C(=C1C)[C@@H]1OC(=O)[C@@](C)(O)[C@@]1(O)[C@@H](OC(=O)CCCCn1cc(COc3ccc(C4=C5C=CC=[N+]5[B-](F)(F)n5cccc54)cc3)nn1)C[C@]2(C)OC(C)=O")
4.59

----------
Test system: U2OS
Experiment: Cytotoxicity against human U2OS cells after 48 hrs by WST-1 assay
Type: functional, cell-based
pIC50: −log10 of the molar value.
A collection of compounds and their measured pIC50
result_type: pIC50

>>> reported("C/C=C(/C)C(=O)O[C@@H]1C[C@H]2C(=C1C)[C@@H]1OC(=O)[C@@](C)(O)[C@@]1(O)[C@@H](OC(=O)CCCCn1cc(COc3ccc(C4=C5C=CC=[N+]5[B-](F)(F)n5cccc54)cc3)nn1)C[C@]2(C)OC(C)=O")
4.88
>>> reported("C/C=C(/C)C(=O)O[C@@H]1C[C@H]2C(=C1C)[C@@H]1OC(=O)[C@@](C)(O)[C@@]1(O)[C@@H](OC(=O)[C@@H](C)CC)C[C@]2(C)OC(C)=O")
6.70
>>> reported("C/C=C(/C)C(=O)O[C@@H]1C[C@H]2C(=C1C)[C@@H]1OC(=O)[C@@](C)(O)[C@@]1(O)[C@@H](OC(=O)CCOCCOCCOCCOCCn1cc(COc3ccc(C4=C5C=CC=[N+]5[B-](F)(F)n5cccc54)cc3)nn1)C[C@]2(C)OC(C)=O")
5.27

----------
Tested on: C2C12
Test: Cytotoxicity against mouse C2C12 cells after 24 hrs by WST-1 assay
Assay type: functional, cell-based
Settings: C2C12, 24 h
result_type: IC50

>>> reported("F[B-]1(F)n2cccc2C=C2C=CC=[N+]21")
"> 50 µM"
>>> reported("C/C=C(/C)C(=O)O[C@@H]1C[C@H]2C(=C1C)[C@@H]1OC(=O)[C@@](C)(O)[C@@]1(O)[C@@H](OC(=O)CCOCCOCCOCCOCCn1cc(COCCOCCOCCOCCNC(=O)CCOCCOCCOCCOCCn3cc(COc4ccc(C5=C6C=CC=[N+]6[B-](F)(F)n6cccc65)cc4)nn3)nn1)C[C@]2(C)OC(C)=O")
"> 50 µM"
>>> reported("C/C=C(/C)C(=O)O[C@@H]1C[C@H]2C(=C1C)[C@@H]1OC(=O)[C@@](C)(O)[C@@]1(O)[C@@H](OC(=O)CCCCn1cc(COc3ccc(C4=C5C=CC=[N+]5[B-](F)(F)n5cccc54)cc3)nn1)C[C@]2(C)OC(C)=O")
"> 50 µM"
>>> reported("C/C=C(/C)C(=O)O[C@@H]1C[C@H]2C(=C1C)[C@@H]1OC(=O)[C@@](C)(O)[C@@]1(O)[C@@H](OC(=O)[C@@H](C)CC)C[C@]2(C)OC(C)=O")
"4 µM"
>>> reported("C/C=C(/C)C(=O)O[C@@H]1C[C@H]2C(=C1C)[C@@H]1OC(=O)[C@@](C)(O)[C@@]1(O)[C@@H](OC(=O)CCOCCOCCOCCOCCn1cc(COc3ccc(C4=C5C=CC=[N+]5[B-](F)(F)n5cccc54)cc3)nn1)C[C@]2(C)OC(C)=O")
"8 µM"
>>> reported("C/C=C(/C)C(=O)O[C@@H]1C[C@H]2C(=C1C)[C@@H]1OC(=O)[C@@](C)(O)[C@@]1(O)[C@@H](OC(=O)CCOCCOCCOCCOCCOCCOCCOCCOCCOCCOCCn1cc(COc3ccc(C4=C5C=CC=[N+]5[B-](F)(F)n5cccc54)cc3)nn1)C[C@]2(C)OC(C)=O")
"> 50 µM"
>>> reported("C/C=C(/C)C(=O)O[C@@H]1C[C@H]2C(=C1C)[C@@H]1OC(=O)[C@@](C)(O)[C@@]1(O)[C@@H](OC(=O)Cn1cc(COc3ccc(C4=C5C=CC=[N+]5[B-](F)(F)n5cccc54)cc3)nn1)C[C@]2(C)OC(C)=O")
"> 50 µM"

----------
Tested on: C2C12
Test: Cytotoxicity against mouse C2C12 cells after 72 hrs by WST-1 assay
Type: functional, cell-based
Settings: C2C12, 72 h
A collection of compounds and their measured IC50
result_type: IC50 (µM)

>>> reported("C/C=C(/C)C(=O)O[C@@H]1C[C@H]2C(=C1C)[C@@H]1OC(=O)[C@@](C)(O)[C@@]1(O)[C@@H](OC(=O)CCCCn1cc(COc3ccc(C4=C5C=CC=[N+]5[B-](F)(F)n5cccc54)cc3)nn1)C[C@]2(C)OC(C)=O")
15.1
>>> reported("C/C=C(/C)C(=O)O[C@@H]1C[C@H]2C(=C1C)[C@@H]1OC(=O)[C@@](C)(O)[C@@]1(O)[C@@H](OC(=O)[C@@H](C)CC)C[C@]2(C)OC(C)=O")
0.3

----------
Experiment: Cytotoxicity against human MIAPaCa2 cells after 48 hrs by WST-1 assay
Assay type: functional, cell-based
Settings: MIA PaCa-2, 48 h
result_type: IC50 (µM)

>>> reported("C/C=C(/C)C(=O)O[C@@H]1C[C@H]2C(=C1C)[C@@H]1OC(=O)[C@@](C)(O)[C@@]1(O)[C@@H](OC(=O)CCOCCOCCOCCOCCn1cc(COc3ccc(C4=C5C=CC=[N+]5[B-](F)(F)n5cccc54)cc3)nn1)C[C@]2(C)OC(C)=O")
9.9
>>> reported("C/C=C(/C)C(=O)O[C@@H]1C[C@H]2C(=C1C)[C@@H]1OC(=O)[C@@](C)(O)[C@@]1(O)[C@@H](OC(=O)CCOCCOCCOCCOCCOCCOCCOCCOCCOCCOCCn1cc(COc3ccc(C4=C5C=CC=[N+]5[B-](F)(F)n5cccc54)cc3)nn1)C[C@]2(C)OC(C)=O")
50
>>> reported("C/C=C(/C)C(=O)O[C@@H]1C[C@H]2C(=C1C)[C@@H]1OC(=O)[C@@](C)(O)[C@@]1(O)[C@@H](OC(=O)[C@@H](C)CC)C[C@]2(C)OC(C)=O")
6
>>> reported("C/C=C(/C)C(=O)O[C@@H]1C[C@H]2C(=C1C)[C@@H]1OC(=O)[C@@](C)(O)[C@@]1(O)[C@@H](OC(=O)CCCCn1cc(COc3ccc(C4=C5C=CC=[N+]5[B-](F)(F)n5cccc54)cc3)nn1)C[C@]2(C)OC(C)=O")
43.5

----------
A collection of molecules and their measured IC50
Test: Cytotoxicity against human MIAPaCa2 cells after 24 hrs by WST-1 assay
Assay type: functional, cell-based
Conditions: MIA PaCa-2, 24 h
result_type: IC50

>>> reported("C/C=C(/C)C(=O)O[C@@H]1C[C@H]2C(=C1C)[C@@H]1OC(=O)[C@@](C)(O)[C@@]1(O)[C@@H](OC(=O)Cn1cc(COc3ccc(C4=C5C=CC=[N+]5[B-](F)(F)n5cccc54)cc3)nn1)C[C@]2(C)OC(C)=O")
"> 50 µM"
>>> reported("C/C=C(/C)C(=O)O[C@@H]1C[C@H]2C(=C1C)[C@@H]1OC(=O)[C@@](C)(O)[C@@]1(O)[C@@H](OC(=O)CCCCn1cc(COc3ccc(C4=C5C=CC=[N+]5[B-](F)(F)n5cccc54)cc3)nn1)C[C@]2(C)OC(C)=O")
"> 50 µM"
>>> reported("C/C=C(/C)C(=O)O[C@@H]1C[C@H]2C(=C1C)[C@@H]1OC(=O)[C@@](C)(O)[C@@]1(O)[C@@H](OC(=O)CCOCCOCCOCCOCCOCCOCCOCCOCCOCCOCCn1cc(COc3ccc(C4=C5C=CC=[N+]5[B-](F)(F)n5cccc54)cc3)nn1)C[C@]2(C)OC(C)=O")
"> 50 µM"
>>> reported("C/C=C(/C)C(=O)O[C@@H]1C[C@H]2C(=C1C)[C@@H]1OC(=O)[C@@](C)(O)[C@@]1(O)[C@@H](OC(=O)[C@@H](C)CC)C[C@]2(C)OC(C)=O")
"17.4 µM"
